# subject of test: ZAP70 (human)
# experiment: Caliper, Mobility shift assay off-chip
# measurement context: compound 0.02 µM
Assign inhibition to each entry below.
Unit % implied. Number only.

IN: Output inhibition of `CNC(=O)c1cc(Oc2ccc(NC(=O)Nc3ccc(Cl)c(C(F)(F)F)c3)cc2)ccn1`
OUT: -17.2

IN: Output inhibition of `CNC(=O)c1ccccc1Sc1ccc2c(/C=C/c3ccccn3)n[nH]c2c1`
OUT: 2.7

IN: Output inhibition of `Cc1ccc(Nc2nccc(N(C)c3ccc4c(C)n(C)nc4c3)n2)cc1S(N)(=O)=O`
OUT: 7

IN: Output inhibition of `COc1cc2c(Oc3ccc4[nH]c(C)cc4c3F)ncnc2cc1OCCCN1CCCC1`
OUT: 3.1

* * *

# subject of test: UniProt P10721
# Sequence (P10721 whole entry, looked up): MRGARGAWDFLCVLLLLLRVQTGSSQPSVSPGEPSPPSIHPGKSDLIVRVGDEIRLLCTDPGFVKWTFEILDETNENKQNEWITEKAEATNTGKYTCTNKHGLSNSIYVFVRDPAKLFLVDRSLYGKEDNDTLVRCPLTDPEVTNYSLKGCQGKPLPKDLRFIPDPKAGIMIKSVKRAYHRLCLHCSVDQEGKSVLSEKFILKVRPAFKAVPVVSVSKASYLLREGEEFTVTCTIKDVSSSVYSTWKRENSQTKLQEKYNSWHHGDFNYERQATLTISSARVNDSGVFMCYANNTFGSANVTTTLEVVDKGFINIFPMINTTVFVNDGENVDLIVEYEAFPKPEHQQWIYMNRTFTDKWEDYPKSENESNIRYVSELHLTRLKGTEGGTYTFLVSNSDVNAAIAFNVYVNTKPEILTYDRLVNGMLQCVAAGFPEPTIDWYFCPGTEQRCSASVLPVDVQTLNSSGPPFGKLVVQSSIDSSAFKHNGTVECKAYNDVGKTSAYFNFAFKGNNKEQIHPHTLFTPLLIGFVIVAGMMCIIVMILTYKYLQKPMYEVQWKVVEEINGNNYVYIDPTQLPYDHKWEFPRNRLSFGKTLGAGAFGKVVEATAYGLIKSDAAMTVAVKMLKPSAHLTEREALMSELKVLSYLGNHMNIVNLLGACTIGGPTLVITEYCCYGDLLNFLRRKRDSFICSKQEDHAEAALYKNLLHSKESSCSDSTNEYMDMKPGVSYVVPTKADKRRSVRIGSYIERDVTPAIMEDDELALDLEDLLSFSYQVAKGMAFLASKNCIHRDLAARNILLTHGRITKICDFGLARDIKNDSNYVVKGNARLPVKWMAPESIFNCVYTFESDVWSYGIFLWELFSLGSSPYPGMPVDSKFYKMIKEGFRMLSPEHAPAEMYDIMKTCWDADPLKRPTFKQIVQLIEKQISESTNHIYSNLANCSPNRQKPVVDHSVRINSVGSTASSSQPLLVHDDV
# experiment: Caliper, Mobility shift assay off-chip
# measurement context: compound 0.2 µM
Assign inhibition to each entry below.
Unit % implied. Number only.

IN: Output inhibition of `CCN(CC)CCNC(=O)c1c(C)[nH]c(/C=C2\C(=O)Nc3ccc(F)cc32)c1C`
OUT: 76.7

IN: Output inhibition of `Cc1ccc(Nc2nccc(N(C)c3ccc4c(C)n(C)nc4c3)n2)cc1S(N)(=O)=O`
OUT: 83

IN: Output inhibition of `CNC(=O)c1cc(Oc2ccc(NC(=O)Nc3ccc(Cl)c(C(F)(F)F)c3)cc2)ccn1`
OUT: 89.8

IN: Output inhibition of `COc1cc2c(Oc3ccc4[nH]c(C)cc4c3F)ncnc2cc1OCCCN1CCCC1`
OUT: 71.4

* * *

Assign inhibition to each entry below.
# subject of test: PAK2 (human)
# experiment: Caliper, Mobility shift assay off-chip
# measurement context: compound 0.02 µM
Unit % implied. Number only.

IN: Output inhibition of `Cc1ccc(Nc2nccc(N(C)c3ccc4c(C)n(C)nc4c3)n2)cc1S(N)(=O)=O`
OUT: 5.5

IN: Output inhibition of `COc1cc2c(Oc3ccc4[nH]c(C)cc4c3F)ncnc2cc1OCCCN1CCCC1`
OUT: -4.1

IN: Output inhibition of `CNC(=O)c1ccccc1Sc1ccc2c(/C=C/c3ccccn3)n[nH]c2c1`
OUT: 4.1

IN: Output inhibition of `CNC(=O)c1cc(Oc2ccc(NC(=O)Nc3ccc(Cl)c(C(F)(F)F)c3)cc2)ccn1`
OUT: -1.7

* * *

# subject of test: SPHK2 (human)
# experiment: Caliper, Mobility shift assay off-chip
# measurement context: compound 0.2 µM
measurement kind: inhibition
Show the value, then the unit it is measured in.

IN: Output inhibition of `COc1cc2c(Oc3ccc4[nH]c(C)cc4c3F)ncnc2cc1OCCCN1CCCC1`
OUT: 2.8%

IN: Output inhibition of `CCN(CC)CCNC(=O)c1c(C)[nH]c(/C=C2\C(=O)Nc3ccc(F)cc32)c1C`
OUT: -6.9%

IN: Output inhibition of `CNC(=O)c1cc(Oc2ccc(NC(=O)Nc3ccc(Cl)c(C(F)(F)F)c3)cc2)ccn1`
OUT: 7.1%

IN: Output inhibition of `Cc1ccc(Nc2nccc(N(C)c3ccc4c(C)n(C)nc4c3)n2)cc1S(N)(=O)=O`
OUT: -6.2%

* * *

Assign inhibition to each entry below.
# subject of test: MINK1 (human)
# experiment: Caliper, Mobility shift assay off-chip
# measurement context: compound 0.2 µM
Unit % implied. Number only.

IN: // output inhibition; input `COc1cc2c(Oc3ccc4[nH]c(C)cc4c3F)ncnc2cc1OCCCN1CCCC1` ; system MINK1 (human)
OUT: 2.9

IN: // output inhibition; input `Cc1ccc(Nc2nccc(N(C)c3ccc4c(C)n(C)nc4c3)n2)cc1S(N)(=O)=O` ; system MINK1 (human)
OUT: 10.8

IN: // output inhibition; input `CNC(=O)c1cc(Oc2ccc(NC(=O)Nc3ccc(Cl)c(C(F)(F)F)c3)cc2)ccn1` ; system MINK1 (human)
OUT: 4.1

IN: // output inhibition; input `CCN(CC)CCNC(=O)c1c(C)[nH]c(/C=C2\C(=O)Nc3ccc(F)cc32)c1C` ; system MINK1 (human)
OUT: 56.6
